Task for the reader: assign each of the following molecules its reported IC50.
# assayedTarget: DNA repair nuclease/redox regulator APEX1 (Homo sapiens, UniProt P27695)
# Sequence (P27695 whole entry): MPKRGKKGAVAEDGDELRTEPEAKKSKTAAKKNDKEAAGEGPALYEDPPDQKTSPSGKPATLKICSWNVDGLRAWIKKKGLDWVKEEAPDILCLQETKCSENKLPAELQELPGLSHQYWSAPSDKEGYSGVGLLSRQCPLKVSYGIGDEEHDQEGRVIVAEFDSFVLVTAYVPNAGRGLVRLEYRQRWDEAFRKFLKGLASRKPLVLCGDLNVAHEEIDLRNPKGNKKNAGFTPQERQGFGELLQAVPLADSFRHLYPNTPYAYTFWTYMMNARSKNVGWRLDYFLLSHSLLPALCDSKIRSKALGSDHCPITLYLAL
# protocolDescription: Inhibition of purified human recombinant APE1 expressed in Escherichia coli M15 cells

For orientation, consider the following solved cases.
molecule=O=C(CN(Cc1cccs1)S(=O)(=O)c1ccc(S(=O)(=O)NC2CC2)cc1)Nc1ccccc1 valuemeasured="> 100 µM"
molecule="O=C(O)CCC(=O)NC(Cc1ccccc1)C(=O)O (stereo not given)" valuemeasured="40 µM"

For each of the items listed, what is its IC50?
1. COc1ccc(/C=C/C(=O)O)cc1S(=O)(=O)NC1CCS(=O)(=O)C1 (stereo not given)
2. O=C(O)c1cccc(S(=O)(=O)N2CCS(=O)(=O)CC2)c1
3. C(=C\CSc1nnnn1-c1ccccc1)/CSc1nnnn1-c1ccccc1
4. Cc1c(OS(=O)(=O)c2ccccc2)cccc1OS(=O)(=O)c1ccccc1
5. COc1cc(C=C2C(=O)OC3(CCCC3)OC2=O)cc(I)c1OCc1ccccc1C#N
6. Cc1cc(S(=O)(=O)N2CCc3ccccc32)ccc1OCC(=O)NCc1ccccn1
7. CCN(Cc1ccccc1)S(=O)(=O)c1ccc(S(=O)(=O)NC2CCC(C)CC2)cc1 (stereo not given)

Data returned:
1: > 100 µM; 2: 80 µM; 3: > 100 µM; 4: > 100 µM; 5: > 100 µM; 6: > 100 µM; 7: > 100 µM

Data request: Field request: IC50 | item: `COc1cc(S(=O)(=O)N(Cc2ccc(Br)cc2)Cc2ccco2)ccc1-n1cnnn1`
Data returned: > 100 µM

###

Task for the reader: assign each of the following compounds its reported pIC50.
# protocolDescription: Inhibition of exonuclase 3
Numbers only, as −log10 of the molar value.

smilesentry=O=C(O)Cc1cc(S(=O)(=O)c2ccc(Sc3ccc(C(=O)O)cc3)cc2)ccc1C(=O)O measuredattribute=pIC50 valuemeasured=4.05
smilesentry=O=C(O)CCN1C(=O)/C(=C2/C(=O)N(CC(=O)O)c3ccccc32)SC1=S measuredattribute=pIC50 valuemeasured=4.22
smilesentry=O=C(O)Cn1c(CCCCc2nc3ccccc3n2CC(=O)O)nc2ccccc21 measuredattribute=pIC50 valuemeasured=4.10
smilesentry=O=C(O)CN1C(=O)/C(=C\c2ccc(-c3cccc(C(=O)O)c3)o2)SC1=S measuredattribute=pIC50 valuemeasured=4.15

# evaluate next
Data request: Field request: pIC50 | item: `Cc1oc(C)c(C(=O)O)c1COc1ccccc1C(=O)O`
Data returned: 4.01

###

# assayedTarget: DNA repair nuclease/redox regulator APEX1 (Homo sapiens)
# protocolDescription: Inhibition of purified human recombinant APE1 expressed in Escherichia coli M15 cells
pIC50: −log10 of the molar value.
Task for the reader: assign each of the following compounds its reported pIC50.

For each of the items listed, what is its pIC50?
1. Cc1ccc(OCc2ccoc2C(=O)O)cc1C
2. O=C(O)CCC1(CCC(=O)O)CCCCC1=O
3. O=S(=O)(O)c1ccccc1Nc1ccnc(Nc2ccccc2S(=O)(=O)O)n1
4. CC(Oc1cc(OC(C)C(=O)O)c2c(c1)oc(=O)c1ccccc12)C(=O)O (stereo not drawn)
5. CC1CCc2c(sc3nc(C4CC4)n4c(SCC(=O)Nc5nccs5)nnc4c23)C1 (stereo not drawn)
6. CS(=O)(=O)NCc1nnc(SCC(=O)N2CCCCCC2)n1-c1ccc(F)cc1
7. O=C(O)CCSc1nnc(SCCC(=O)O)s1
8. Cc1ccc(-c2noc(CNC(=O)CN(C)S(=O)(=O)c3ccc4ccccc4c3)n2)cc1

Data returned:
1: 4.96; 2: < 4.00; 3: < 4.00; 4: 5.10; 5: < 4.00; 6: < 4.00; 7: 4.77; 8: < 4.00
